Source of measurements: PubChem BioAssay (EPA / NIEHS)

assay: ATG_SREBP_CIS: Attagene CIS-FACTORIAL HepG2 Assay for human Sterol Regulatory Element Binding (SREBP) (AID 2282962); settings: HepG2 Attagene cis-factorial SREBP reporter, mRNA; actives raise or lower the signal
Activity calls are given as the source filed them. How the source made its calls: active means hit-call score of the fitted dose curve at least 0.9, where 1 is the maximum; inactive means score below 0.9.

{"compound": "O=C(O)c1cc(I)cc(I)c1I", "AC50": "inactive"}
{"compound": "CCN(CC)C(=O)C(Cl)=C(C)OP(=O)(OC)OC", "AC50": "inactive"}
{"compound": "COc1ccc(N)cc1", "AC50": "inactive"}
{"compound": "CCOP(=S)(OCC)Oc1ccc(Cl)cc1Cl", "AC50": "inactive"}
{"compound": "CC1(C)[C@H](C(=O)O[C@H](C#N)c2cccc(Oc3ccccc3)c2)[C@@H]1/C=C(\\Cl)C(F)(F)F", "AC50": "inactive"}
{"compound": "O=C(O)COc1ccc(Cl)cc1", "AC50": "inactive"}
{"compound": "Cc1ccccc1OP(=O)(Oc1ccccc1C)Oc1ccccc1C", "AC50": "inactive"}
{"compound": "NNCCO", "AC50": "inactive"}
{"compound": "N#CCCC(Br)(C#N)CBr (configuration not stated)", "AC50": "inactive"}
{"compound": "C[C@@H]1O[C@@H](O[C@H]2C[C@@H](O)[C@]3(CO)[C@H]4[C@H](O)C[C@]5(C)[C@@H](C6=CC(=O)OC6)CC[C@]5(O)[C@@H]4CC[C@]3(O)C2)[C@H](O)[C@H](O)[C@H]1O", "AC50": "0.0716 µM (active)"}
{"compound": "OC[C@@H](O)[C@H]1O[C@@H]2O[C@H](C(Cl)(Cl)Cl)O[C@@H]2[C@H]1O", "AC50": "inactive"}
{"compound": "Nc1c(Oc2ccccc2)cc(O)c2c1C(=O)c1ccccc1C2=O", "AC50": "inactive"}
{"compound": "OC(c1ccc(Cl)cc1)(c1ccc(Cl)cc1)c1cccnc1", "AC50": "inactive"}
{"compound": "Oc1c(Br)cc(Br)cc1Br", "AC50": "inactive"}
{"compound": "O=C(Cc1ccccc1)OCCc1ccccc1", "AC50": "inactive"}
{"compound": "Cc1cc(SCc2sc(-c3ccc(C(F)(F)F)c(F)c3)nc2C)ccc1OCC(=O)O", "AC50": "inactive"}
{"compound": "C=CC(=O)[O][Sn]([CH2]CCC)([CH2]CCC)[CH2]CCC", "AC50": "0.189 µM (active)"}
{"compound": "CCCCCCCCCCCCCCC(Br)C(=O)O (configuration not stated)", "AC50": "inactive"}
{"compound": "Clc1cccc(Cl)c1", "AC50": "inactive"}
{"compound": "CC(C)(C#N)N=NC(C)(C)C#N", "AC50": "inactive"}
{"compound": "OCCCCO", "AC50": "inactive"}
{"compound": "CCOC(=O)Cc1ccccc1", "AC50": "inactive"}
{"compound": "COP(=S)(OC)Oc1cc(Cl)c(I)cc1Cl", "AC50": "37.3 µM (active)"}
{"compound": "CC(C)(C1CCC(O)CC1)C1CCC(O)CC1 (configuration not stated)", "AC50": "inactive"}
{"compound": "Clc1cc(C(Cl)(Cl)Cl)cnc1Cl", "AC50": "17.5 µM (active)"}
{"compound": "CCCCCCCCCCBr", "AC50": "inactive"}
{"compound": "CCCCOC(=O)COC(=O)c1ccccc1C(=O)OCCCC", "AC50": "inactive"}

* * *

biological target: Nuclear receptor subfamily 4 group A member 2 (Homo sapiens) (UniProt P43354); test: ATG_NURR1_TRANS: Attagene TRANS-FACTORIAL HepG2 Assay for human Nuclear Receptor Related Protein 1 (NURR1) (AID 2282985); conditions: HepG2 Attagene TRANS reporter, mRNA readout
Sequence (P43354 whole entry, looked up): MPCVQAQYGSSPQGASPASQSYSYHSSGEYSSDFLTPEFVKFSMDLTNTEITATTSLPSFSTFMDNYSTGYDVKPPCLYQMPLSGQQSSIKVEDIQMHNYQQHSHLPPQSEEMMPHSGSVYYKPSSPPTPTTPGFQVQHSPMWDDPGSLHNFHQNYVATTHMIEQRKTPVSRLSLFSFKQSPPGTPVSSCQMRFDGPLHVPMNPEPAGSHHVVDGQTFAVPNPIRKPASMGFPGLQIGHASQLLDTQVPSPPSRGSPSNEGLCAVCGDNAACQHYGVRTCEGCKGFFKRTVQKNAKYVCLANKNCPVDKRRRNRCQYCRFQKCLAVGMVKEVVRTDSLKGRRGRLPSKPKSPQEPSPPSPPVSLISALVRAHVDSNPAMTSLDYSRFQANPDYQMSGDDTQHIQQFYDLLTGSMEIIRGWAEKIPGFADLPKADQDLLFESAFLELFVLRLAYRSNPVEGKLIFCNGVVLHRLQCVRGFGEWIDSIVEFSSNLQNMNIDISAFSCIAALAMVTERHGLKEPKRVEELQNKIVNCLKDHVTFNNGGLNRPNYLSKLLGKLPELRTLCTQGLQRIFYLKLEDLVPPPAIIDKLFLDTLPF
Inconclusive results are not listed. Calls of active or inactive are those of the source. How the source made its calls: active means hit-call score of the fitted dose curve at least 0.9, where 1 is the maximum; inconclusive means response in the unintended direction; inactive means score below 0.9.
Outcome codes: active, inactive

{"compound": "Cc1ccc2nc3sc(=O)sc3nc2c1", "category": "inactive"}
{"compound": "CNC(=O)O/N=C/C(C)(C)S(C)(=O)=O", "category": "inactive"}
{"compound": "O=C(Cc1ccccc1)OCCc1ccccc1", "category": "inactive"}
{"compound": "CC(C)(C1CCC(O)CC1)C1CCC(O)CC1 (stereo unspecified)", "category": "inactive"}
{"compound": "C=CCOC(N)=O", "category": "inactive"}
{"compound": "CN(N=O)c1ccc([N+](=O)[O-])cc1", "category": "inactive"}
{"compound": "C=CC(Cl)CCl (stereo unspecified)", "category": "inactive"}
{"compound": "O=S1(=O)OC(c2cc(Br)c(O)c(Br)c2)(c2cc(Br)c(O)c(Br)c2)c2ccccc21", "category": "inactive"}
{"compound": "OCC(c1ccc(Cl)cc1)c1ccc(Cl)cc1", "category": "active"}
{"compound": "Nc1nc(=S)[nH][nH]1", "category": "inactive"}
{"compound": "Cc1ccccc1OP(=O)(Oc1ccccc1C)Oc1ccccc1C", "category": "active"}
{"compound": "C=C(C)C(=O)OCCCCOC(=O)C(=C)C", "category": "inactive"}
{"compound": "O=[N+]([O-])c1ccccc1O", "category": "inactive"}
{"compound": "Brc1c(Br)c(Br)c(Oc2c(Br)c(Br)c(Br)c(Br)c2Br)c(Br)c1Br", "category": "inactive"}
{"compound": "O=C1C[C@@H]2OCC=C3CN4CC[C@]56c7ccccc7N1[C@H]5[C@H]2[C@H]3C[C@H]46", "category": "inactive"}
{"compound": "Cc1ccccc1OP(=O)(Oc1ccccc1)Oc1ccccc1", "category": "active"}
{"compound": "c1ccc(-c2cccc(-c3ccccc3)c2)cc1", "category": "active"}
{"compound": "CCCCCCCCCCBr", "category": "inactive"}
{"compound": "C[CH2][Hg][S]c1ccccc1C(=O)O", "category": "inactive"}
{"compound": "N#Cc1cccnc1", "category": "inactive"}
{"compound": "CCOC(=O)CC(=O)CCl", "category": "inactive"}
{"compound": "ClCc1ccccc1Cl", "category": "inactive"}
{"compound": "CC(C)(C)c1ccccc1O", "category": "active"}
{"compound": "CC(C)[C@H](C(=O)OC(C#N)c1cccc(Oc2ccccc2)c1)c1ccc(OC(F)F)cc1 (stereo partly specified)", "category": "inactive"}
{"compound": "Nc1ccc(-c2ccccc2)cc1", "category": "inactive"}
{"compound": "Nc1ccc(Br)cc1", "category": "inactive"}
{"compound": "CN(N=O)C(N)=O", "category": "inactive"}
{"compound": "Clc1ccc(C(Cl)(Cl)Cl)cn1", "category": "inactive"}
{"compound": "CC1(C)[C@H](/C=C2\\CCSC2=O)[C@@H]1C(=O)OCc1coc(Cc2ccccc2)c1", "category": "inactive"}
{"compound": "N#Cc1ccncc1", "category": "inactive"}
{"compound": "CC(=Cc1ccccc1)[N+](=O)[O-]", "category": "inactive"}
{"compound": "Cc1cc(C(C)(C)c2ccc(O)c(C)c2)ccc1O", "category": "active"}
{"compound": "CNC(=O)N(C)c1nc2ccccc2s1", "category": "inactive"}
{"compound": "CN(C)C(=S)S", "category": "inactive"}
{"compound": "CN(CCCC(O)c1cccnc1)N=O (stereo unspecified)", "category": "inactive"}
{"compound": "CCOC(=O)C(SP(=S)(OC)OC)c1ccccc1 (stereo unspecified)", "category": "inactive"}
{"compound": "O=c1[nH]c(=O)n(Cl)c(=O)n1Cl", "category": "inactive"}
{"compound": "[Cl][Sn]([c]1ccccc1)([c]1ccccc1)[c]1ccccc1", "category": "active"}
{"compound": "CCCSP(=S)(OCC)Oc1ccc(Cl)cc1Cl (stereo unspecified)", "category": "inactive"}
{"compound": "ClCc1ccccc1CCl", "category": "inactive"}
{"compound": "Clc1cnc(Oc2ccc(Oc3ncc(Cl)cc3Cl)cc2)c(Cl)c1", "category": "inactive"}
{"compound": "O=C(CCl)Nc1ccccc1", "category": "inactive"}
{"compound": "CCOc1ccc(N)cc1", "category": "inactive"}
{"compound": "COP(=S)(OC)Oc1cc(Cl)c(I)cc1Cl", "category": "inactive"}
{"compound": "CCCCCCCCBr", "category": "inactive"}
{"compound": "O=C(NC(=O)c1c(F)cccc1F)Nc1ccc(Cl)cc1", "category": "inactive"}
{"compound": "CC(C)(C#N)N=NC(C)(C)C#N", "category": "inactive"}
{"compound": "O=C(CCl)NCO", "category": "inactive"}
{"compound": "CC(C)[C@@H](Nc1ccc(C(F)(F)F)cc1Cl)C(=O)OC(C#N)c1cccc(Oc2ccccc2)c1 (stereo partly specified)", "category": "inactive"}
{"compound": "c1csc(-c2ccc(-c3cccs3)s2)c1", "category": "active"}
{"compound": "CN(C)c1ccc(N=O)cc1", "category": "inactive"}
{"compound": "CCOP(=S)(OCC)SCS(=O)(=O)C(C)(C)C", "category": "inactive"}
{"compound": "OC(c1ccc(Cl)cc1)(c1ccc(Cl)cc1)c1cccnc1", "category": "inactive"}
{"compound": "CC(C)(c1ccc(O)c(-c2ccccc2)c1)c1ccc(O)c(-c2ccccc2)c1", "category": "inactive"}
{"compound": "C1CN2CCN1CC2", "category": "inactive"}
{"compound": "CCC[CH2][Sn]([CH2]CCC)([CH2]CCC)[CH2]CCC", "category": "active"}
